assay system: Ca^2+ channel (Rattus norvegicus, UniProt P22002)
Sequence (P22002 whole entry, other chains not shown): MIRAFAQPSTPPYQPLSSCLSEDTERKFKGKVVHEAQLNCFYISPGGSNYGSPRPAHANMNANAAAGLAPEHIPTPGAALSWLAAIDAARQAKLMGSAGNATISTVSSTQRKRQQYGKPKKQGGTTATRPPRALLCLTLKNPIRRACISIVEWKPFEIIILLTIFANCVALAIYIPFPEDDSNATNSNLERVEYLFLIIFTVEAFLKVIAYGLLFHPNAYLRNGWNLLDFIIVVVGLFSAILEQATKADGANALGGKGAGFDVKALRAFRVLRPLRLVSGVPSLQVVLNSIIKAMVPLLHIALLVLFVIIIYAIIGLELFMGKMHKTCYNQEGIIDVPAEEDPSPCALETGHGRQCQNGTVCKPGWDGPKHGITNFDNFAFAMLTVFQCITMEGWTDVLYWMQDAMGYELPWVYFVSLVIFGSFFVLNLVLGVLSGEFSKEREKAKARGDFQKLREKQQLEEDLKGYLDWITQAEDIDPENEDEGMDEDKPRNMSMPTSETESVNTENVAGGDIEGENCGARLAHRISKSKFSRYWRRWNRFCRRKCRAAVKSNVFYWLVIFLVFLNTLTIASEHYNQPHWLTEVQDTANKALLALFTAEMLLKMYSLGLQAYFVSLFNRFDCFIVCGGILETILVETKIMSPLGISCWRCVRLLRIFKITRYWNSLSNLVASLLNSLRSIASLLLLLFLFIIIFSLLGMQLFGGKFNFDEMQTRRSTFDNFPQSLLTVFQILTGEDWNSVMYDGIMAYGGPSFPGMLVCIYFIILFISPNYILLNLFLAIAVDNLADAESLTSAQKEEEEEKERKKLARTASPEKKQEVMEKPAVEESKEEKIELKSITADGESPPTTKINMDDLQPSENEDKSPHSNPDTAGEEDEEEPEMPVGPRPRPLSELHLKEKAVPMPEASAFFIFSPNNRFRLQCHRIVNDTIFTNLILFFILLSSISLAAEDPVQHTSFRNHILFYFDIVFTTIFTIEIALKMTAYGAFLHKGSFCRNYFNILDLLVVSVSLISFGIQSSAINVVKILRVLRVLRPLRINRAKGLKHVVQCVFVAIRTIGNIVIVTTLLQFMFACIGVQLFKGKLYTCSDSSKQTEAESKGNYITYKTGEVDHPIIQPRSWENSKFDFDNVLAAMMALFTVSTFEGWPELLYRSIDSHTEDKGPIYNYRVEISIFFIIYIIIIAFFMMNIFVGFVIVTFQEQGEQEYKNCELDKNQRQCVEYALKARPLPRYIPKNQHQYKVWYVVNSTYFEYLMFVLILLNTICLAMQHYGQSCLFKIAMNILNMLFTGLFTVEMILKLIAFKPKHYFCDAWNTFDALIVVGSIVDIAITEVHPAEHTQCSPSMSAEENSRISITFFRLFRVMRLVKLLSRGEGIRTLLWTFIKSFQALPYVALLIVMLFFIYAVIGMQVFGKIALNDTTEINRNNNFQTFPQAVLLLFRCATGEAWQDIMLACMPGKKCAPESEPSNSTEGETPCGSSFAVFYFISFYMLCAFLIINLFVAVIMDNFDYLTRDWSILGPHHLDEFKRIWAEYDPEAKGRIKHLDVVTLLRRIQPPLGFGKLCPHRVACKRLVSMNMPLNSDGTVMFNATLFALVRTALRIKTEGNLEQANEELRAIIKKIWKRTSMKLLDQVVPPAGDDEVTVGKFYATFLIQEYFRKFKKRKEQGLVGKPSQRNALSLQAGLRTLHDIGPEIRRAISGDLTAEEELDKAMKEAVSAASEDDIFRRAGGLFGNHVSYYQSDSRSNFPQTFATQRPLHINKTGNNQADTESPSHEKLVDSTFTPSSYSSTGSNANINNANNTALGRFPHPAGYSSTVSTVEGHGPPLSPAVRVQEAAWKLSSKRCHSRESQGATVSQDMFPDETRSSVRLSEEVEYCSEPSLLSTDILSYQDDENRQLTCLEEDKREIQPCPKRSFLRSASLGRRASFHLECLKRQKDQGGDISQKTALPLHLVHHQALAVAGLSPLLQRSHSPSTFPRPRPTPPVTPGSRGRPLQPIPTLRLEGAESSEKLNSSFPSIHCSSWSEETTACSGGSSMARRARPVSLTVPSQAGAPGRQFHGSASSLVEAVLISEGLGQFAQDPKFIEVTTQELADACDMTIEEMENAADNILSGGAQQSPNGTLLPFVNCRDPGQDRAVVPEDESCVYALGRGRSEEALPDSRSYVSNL
Sequence (P54290 25-944 partner limits assumed, other chains not shown): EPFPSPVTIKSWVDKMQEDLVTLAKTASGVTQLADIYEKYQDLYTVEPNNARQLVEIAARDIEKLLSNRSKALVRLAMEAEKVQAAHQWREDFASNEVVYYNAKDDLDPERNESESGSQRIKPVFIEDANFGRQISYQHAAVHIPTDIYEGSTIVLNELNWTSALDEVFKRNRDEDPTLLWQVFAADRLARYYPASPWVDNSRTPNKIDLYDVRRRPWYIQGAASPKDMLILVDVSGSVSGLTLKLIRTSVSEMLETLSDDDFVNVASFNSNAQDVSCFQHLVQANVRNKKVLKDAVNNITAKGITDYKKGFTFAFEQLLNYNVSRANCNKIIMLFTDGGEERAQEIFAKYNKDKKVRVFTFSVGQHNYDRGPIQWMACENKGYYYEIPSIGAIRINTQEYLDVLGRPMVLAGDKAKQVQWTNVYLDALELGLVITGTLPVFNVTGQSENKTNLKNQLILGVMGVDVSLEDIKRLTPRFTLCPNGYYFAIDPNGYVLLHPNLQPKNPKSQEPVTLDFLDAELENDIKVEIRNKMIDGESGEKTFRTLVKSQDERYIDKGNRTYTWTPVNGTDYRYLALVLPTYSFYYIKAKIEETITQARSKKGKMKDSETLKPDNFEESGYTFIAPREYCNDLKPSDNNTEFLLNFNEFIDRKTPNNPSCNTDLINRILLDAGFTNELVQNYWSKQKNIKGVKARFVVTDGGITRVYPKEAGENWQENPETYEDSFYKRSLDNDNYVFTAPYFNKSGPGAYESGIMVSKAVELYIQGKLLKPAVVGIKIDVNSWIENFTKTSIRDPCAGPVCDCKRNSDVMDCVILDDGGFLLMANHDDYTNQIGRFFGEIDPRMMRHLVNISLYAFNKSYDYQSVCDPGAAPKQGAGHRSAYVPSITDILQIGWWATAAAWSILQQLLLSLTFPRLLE
Sequence (P54290 945-1091 partner limits assumed, other chains not shown): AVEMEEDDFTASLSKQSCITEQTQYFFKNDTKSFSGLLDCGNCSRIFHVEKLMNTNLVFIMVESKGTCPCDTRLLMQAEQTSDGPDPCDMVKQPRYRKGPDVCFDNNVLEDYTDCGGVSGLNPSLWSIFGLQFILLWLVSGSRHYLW
protocol description: verapamil binding study in rat heart membrane preparation
experimental context: 0.25 nM [^3H]desmethoxyverapamil, read-out: verapamil binding study (Ca^2+ channel binding affinity, adverse effect)
Method: The adverse effect on Ca^2+ channel binding affinity is determined by verapamil binding study in rat heart membrane preparation. More specifically, verapamil binding study is performed as previously described by Reynolds et al., (J. Pharmacol. Exp. Ther., 237, 731, (1986)). Briefly, incubations are initiated by the addition of tissue to tubes containing 0.25 nM [^3H]desmethoxyverapamil and various concentrations of compounds (total volume; 1 ml). […]
pIC50: −log10 of the molar value.

| molecule | pIC50 |
| --- | --- |
| COc1cc2c(cc1CN[C@H]1CCCN[C@H]1c1ccccc1)N(C)C(=O)CC2.Cl.Cl [Compound 21, Dihydrochloride] | < 6.52 |

---

In this section, each of the molecules is paired with its reported melting point.

| molecule | melting point |
| --- | --- |
| COc1cc2c(cc1CN[C@H]1CCCN[C@H]1c1ccccc1)CCC(=S)N2C.Cl.Cl | 219 to 221 °C |
| COc1cc2c(cc1CN[C@H]1CCCN[C@H]1c1ccccc1)N(CC(F)(F)F)C(=O)CC2.Cl.Cl | 243 to 245 °C |
| COc1cc2c(cc1CN[C@H]1CCCN[C@H]1c1ccccc1)N(C)C(=O)OC2.Cl.Cl | 235 to 237 °C |
| COc1cc2ccc(=O)n(C)c2cc1CN[C@H]1C2CCN(CC2)[C@H]1C(c1ccccc1)c1ccccc1 | 125 to 128 °C |
| COc1cc2c(cc1CN[C@H]1CCCN[C@H]1c1ccccc1)C(C(F)(F)F)CC(=O)N2C.Cl.Cl (some centres unmarked) | 255 to 256 °C |
